assay: in vivo; conditions: female, CD-1, mouse, 30 mg/kg, BALF Cmax
observable: Cmax (ng/mL)
Give bare numbers, in ng/mL.

Respond only with Cmax recorded for C[C@H]1COc2c(N3CCN(C)CC3)c(F)cc3c(=O)c(C(=O)O)cn1c23 [Levofloxacin, levofloxacin] 2000

###

tested on: P. aeruginosa; test: MIC potentiation of antimicrobial agents by EPIs; type: cell-based, Pseudomonas aeruginosa; details: TXA01182 at […];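 note: TXA01182 tested at 6.25 µg/mL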
observable: MIC of antibiotic + TXA01182 (µg/mL)
Give bare numbers, in µg/mL.

Past entries and their recorded results:
Name the recorded MIC of antibiotic + TXA01182 of the item CO/N=C(\C(=O)N[C@@H]1C(=O)N2C(C(=O)[O-])=C(C[N+]3(C)CCCC3)CS[C@H]12)c1csc(N)n1 [Cefepime] in your answer. 1

Item C[C@@H](O)[C@H]1C(=O)N2C(C(=O)O)=C(SCCN=CN)C[C@H]12 [Imipenem] : provide MIC of antibiotic + TXA01182 4

Quote MIC of antibiotic + TXA01182 reported for CNC(C)C1CCC(N)C(OC2C(N)CC(N)C(OC3OCC(C)(O)C(NC)C3O)C2O)O1 (stereo not shown) [Gentamicin] please. 2

Read off the recorded MIC of antibiotic + TXA01182 for C[C@H]1c2cccc(O)c2C(=O)C2=C(O)[C@]3(O)C(=O)C(C(N)=O)=C(O)[C@@H](N(C)C)[C@@H]3[C@@H](O)[C@@H]21 [Doxycycline, doxycycline] 2

// input: 3 molecules below; output: MIC of antibiotic + TXA01182 for each
1. CC(C)(O/N=C(\C(=O)N[C@@H]1C(=O)N2C(C(=O)[O-])=C(C[n+]3ccccc3)CS[C@H]12)c1csc(N)n1)C(=O)O [Ceftazidime, ceftazidime]
2. Nc1nc(/C(=N/O)C(=O)N[C@@H]2C(=O)N3C(C(=O)O)=C(/C=C4\CCN([C@@H]5CCNC5)C4=O)CS[C@H]23)ns1 [Ceftobiprole]
3. C[C@H]1[C@H](NC(=O)/C(=N\OC(C)(C)C(=O)O)c2csc(N)n2)C(=O)N1S(=O)(=O)O [Aztreonam]

[1, 8, 2]

###

assay: Plasma protein binding (equilibrium dialysis); assay type: in vitro ADME; settings: human, read-out: Protein Binding
observable: fraction unbound
Answers are plain numbers.

Supply fraction unbound value. Item: NCC(F)C[C@@H](N)CNC(=O)c1cc2ccc(-c3ccc(F)cc3)cc2[nH]1 (stereo partly shown) 0.01

###

assay: Aqueous solubility; format: physicochemical; details: system solution (SS), pH 7.4, aqueous buffer, kinetic from dmso stock
observable: solubility at 6 h (µM)
One number for each entry, in µM.

Check the records and state solubility at 6 h for NC[C@@H]1CN[C@H](CNC(=O)c2cc3ccc(-c4ccc(F)cc4)cc3[nH]2)C1 [TXA09155] 155

###

Answer each item with its documented Tmax.
assay: in vivo; settings: female, CD-1, mouse, 30 mg/kg, Plasma Tmax
Give bare numbers, in min.

Write down Tmax measured for item `C[C@H]1COc2c(N3CCN(C)CC3)c(F)cc3c(=O)c(C(=O)O)cn1c23` 15

Query molecule follows.
Please look at this molecule and report its Tmax: NCC(F)C[C@@H](N)CNC(=O)c1cc2ccc(-c3ccc(F)cc3)cc2[nH]1 (some centres unmarked) 4.98

###

assay: in vivo; conditions: female, CD-1, mouse, 30 mg/kg, Plasma Half-life
observable: half-life (h)
Answers are plain numbers, in h.

Please look at this molecule and report its half-life: `C[C@H]1COc2c(N3CCN(C)CC3)c(F)cc3c(=O)c(C(=O)O)cn1c23` 1.48

Note: attention shifts to another entry.
Please list half-life recorded for the molecule NCC(F)C[C@@H](N)CNC(=O)c1cc2ccc(-c3ccc(F)cc3)cc2[nH]1 (some centres unmarked) 1.84

This collection of values is drawn from paper PMC13114161.
